Cited source for all entries: the supplement of paper PMC6555819

# Test system: VDR:RXRa (NR concentration 270 nM, RXRa partner concentration 90 nM)
# assay remarks: PBM binding z-score (relative to random genomic background probes); higher = stronger binding; sequences stand for … in GC…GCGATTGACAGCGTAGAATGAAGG
The following sequences are listed with their measured PBM binding z-score values.
Number only, please.

Example sequences with recorded PBM binding z-score:
* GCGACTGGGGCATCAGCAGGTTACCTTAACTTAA | -0.355
* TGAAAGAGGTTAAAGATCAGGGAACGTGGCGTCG | 1.82
* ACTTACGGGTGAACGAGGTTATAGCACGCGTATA | 5.33

Q) Need PBM binding z-score, item `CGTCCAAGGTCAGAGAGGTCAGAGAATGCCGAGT`
A) 7.59

Q) Need PBM binding z-score, item `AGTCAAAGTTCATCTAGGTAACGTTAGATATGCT`
A) 5.11

Q) Need PBM binding z-score, item `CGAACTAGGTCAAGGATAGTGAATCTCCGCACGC`
A) 1.19

Q) Need PBM binding z-score, item `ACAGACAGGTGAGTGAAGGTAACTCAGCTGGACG`
A) -0.401

###

# Test system: PPARa:RXRa (NR concentration 270 nM, RXRa partner concentration 90 nM)
# assay remarks: PBM binding z-score (relative to random genomic background probes); higher = stronger binding; sequences stand for … in GC…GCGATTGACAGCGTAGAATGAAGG
readout name: PBM binding z-score
Number only, please.

Q) Need PBM binding z-score, item `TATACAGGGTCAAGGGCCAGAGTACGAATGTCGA`
A) 5.8

###

# System: RARb homodimer (NR concentration 270 nM)
# assay remarks: PBM binding z-score (relative to random genomic background probes); higher = stronger binding; sequences stand for … in GC…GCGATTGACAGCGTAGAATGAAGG
Assign fulfilled whenever PBM binding z-score does not fall below 1; assign not fulfilled whenever it does.

Examples with answers:
* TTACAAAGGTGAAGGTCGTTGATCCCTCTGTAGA | fulfilled
* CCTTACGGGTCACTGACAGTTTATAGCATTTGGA | fulfilled
* CCTCGGATGACAGAAGGTCAGAGCTGTCCGCTTT | fulfilled
* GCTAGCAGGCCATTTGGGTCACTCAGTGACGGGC | fulfilled

Q) Reported PBM binding z-score reaches at least 1 for `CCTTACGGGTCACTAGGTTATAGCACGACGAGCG` ?
A) fulfilled

Q) Reported PBM binding z-score reaches at least 1 for `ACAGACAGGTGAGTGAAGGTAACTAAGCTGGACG` ?
A) not fulfilled

Q) Reported PBM binding z-score reaches at least 1 for `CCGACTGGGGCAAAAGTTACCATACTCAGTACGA` ?
A) not fulfilled

Q) Reported PBM binding z-score reaches at least 1 for `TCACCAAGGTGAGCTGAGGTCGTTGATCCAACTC` ?
A) fulfilled

Q) Reported PBM binding z-score reaches at least 1 for `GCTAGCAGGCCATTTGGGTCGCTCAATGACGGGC` ?
A) not fulfilled

Q) Reported PBM binding z-score reaches at least 1 for `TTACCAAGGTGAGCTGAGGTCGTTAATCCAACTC` ?
A) fulfilled

Q) Reported PBM binding z-score reaches at least 1 for `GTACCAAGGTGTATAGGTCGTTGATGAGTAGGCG` ?
A) not fulfilled

Q) Reported PBM binding z-score reaches at least 1 for `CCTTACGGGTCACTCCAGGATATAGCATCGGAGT` ?
A) fulfilled

###

# Tested on: LXRa:RXRa (NR concentration 270 nM, RXRa partner concentration 90 nM)
# assay remarks: PBM binding z-score (relative to random genomic background probes); higher = stronger binding; sequences stand for … in GC…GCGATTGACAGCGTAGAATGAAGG
readout name: PBM binding z-score

Q) Could you share what PBM binding z-score was measured for `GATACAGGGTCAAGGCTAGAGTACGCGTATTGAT` , tested on LXRa:RXRa (NR concentration 270 nM, RXRa partner concentration 90 nM)?
A) 4.13

###

# Test system: PPARg DBDmut:RXRa IVT, anti-PPARg (DBD mutation: PPARg1 K132A/R137A, NR concentration 270 nM, RXRa partner concentration 90 nM)
# assay remarks: PBM binding z-score (relative to random genomic background probes); higher = stronger binding; sequences stand for … in GC…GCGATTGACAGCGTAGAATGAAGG
The following sequences are listed with their measured PBM binding z-score values.

Example sequences with recorded PBM binding z-score:
* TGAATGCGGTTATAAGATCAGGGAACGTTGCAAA | 0.512
* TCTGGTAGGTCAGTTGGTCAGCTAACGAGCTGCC | -0.0249
* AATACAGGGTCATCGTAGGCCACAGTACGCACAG | 2.5
* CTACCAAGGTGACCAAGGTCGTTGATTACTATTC | -0.302
* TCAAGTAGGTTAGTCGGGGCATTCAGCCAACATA | 0.386
* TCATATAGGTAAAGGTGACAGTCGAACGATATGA | 1.74

Q) Need PBM binding z-score, item `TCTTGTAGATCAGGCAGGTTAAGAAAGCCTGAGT`
A) 0.127

Q) Need PBM binding z-score, item `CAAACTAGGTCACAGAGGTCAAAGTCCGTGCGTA`
A) 2.19

Q) Need PBM binding z-score, item `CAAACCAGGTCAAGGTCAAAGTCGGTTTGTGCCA`
A) 2.64

Q) Need PBM binding z-score, item `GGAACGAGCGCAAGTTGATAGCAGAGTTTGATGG`
A) -2.04

Q) Need PBM binding z-score, item `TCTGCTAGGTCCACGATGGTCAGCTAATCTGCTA`
A) -0.95

Q) Need PBM binding z-score, item `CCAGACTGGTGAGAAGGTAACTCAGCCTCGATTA`
A) -1.06

###

# Tested on: RARa homodimer (NR concentration 270 nM)
# assay remarks: PBM binding z-score (relative to random genomic background probes); higher = stronger binding; sequences stand for … in GC…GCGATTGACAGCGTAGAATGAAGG
readout name: PBM binding z-score

Example sequences with recorded PBM binding z-score:
• CCTTACGGGTCACTCCCGGTTATAGCATCGGAGT = 1.06
• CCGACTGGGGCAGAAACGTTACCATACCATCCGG = 0.0145
• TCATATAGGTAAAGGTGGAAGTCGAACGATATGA = 0.638
• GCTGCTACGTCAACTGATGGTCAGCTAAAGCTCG = -1.34
• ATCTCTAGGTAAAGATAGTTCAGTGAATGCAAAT = 0.47

Consider the record given below.
Q) Need PBM binding z-score, item `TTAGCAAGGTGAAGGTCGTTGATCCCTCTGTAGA`
A) -0.525

###

# System: PPARg:RXRa IVT, anti-PPARg (NR concentration 270 nM, RXRa partner concentration 90 nM)
# assay remarks: PBM binding z-score (relative to random genomic background probes); higher = stronger binding; sequences stand for … in GC…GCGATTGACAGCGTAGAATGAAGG
The following sequences are listed with their measured PBM binding z-score values.

Example sequences with recorded PBM binding z-score:
• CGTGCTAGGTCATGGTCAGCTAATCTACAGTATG = 4.25
• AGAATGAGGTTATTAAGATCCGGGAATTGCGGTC = 2.17
• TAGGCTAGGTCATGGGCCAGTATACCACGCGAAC = 3.61

Q) Need PBM binding z-score, item `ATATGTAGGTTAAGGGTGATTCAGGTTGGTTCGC`
A) 6.98

Q) Need PBM binding z-score, item `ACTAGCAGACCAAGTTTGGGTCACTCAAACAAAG`
A) 0.415

###

# Test system: RARa homodimer (NR concentration 270 nM)
# assay remarks: PBM binding z-score (relative to random genomic background probes); higher = stronger binding; sequences stand for … in GC…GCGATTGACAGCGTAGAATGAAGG
Entries are grouped by PBM binding z-score into these classes: zone 1 (below 0.3), zone 2 (0.3 to below 1), zone 3 (1 or more)

Examples with answers:
* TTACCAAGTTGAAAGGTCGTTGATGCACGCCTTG | zone 2
* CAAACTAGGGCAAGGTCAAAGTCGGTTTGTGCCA | zone 3
* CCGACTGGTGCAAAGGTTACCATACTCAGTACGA | zone 2
* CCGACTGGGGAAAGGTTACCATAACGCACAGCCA | zone 2
* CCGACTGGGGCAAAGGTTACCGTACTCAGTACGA | zone 1
* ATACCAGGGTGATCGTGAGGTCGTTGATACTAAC | zone 2

Q) Exercise: read the entry `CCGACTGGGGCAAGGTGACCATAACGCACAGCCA` and state which class it falls under.
A) zone 1

Q) Exercise: read the entry `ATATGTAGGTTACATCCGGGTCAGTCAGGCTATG` and state which class it falls under.
A) zone 2

Q) Exercise: read the entry `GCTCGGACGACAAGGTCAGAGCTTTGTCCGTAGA` and state which class it falls under.
A) zone 1
